Value source: PubChem BioAssay (NCI)

Provide the recorded TGI for the entries that follow.
Test system: MCF7 breast
ASSAY_INFO: NCI tumour cell line growth inhibition, 48 h
// units = µM; emit number, no label

Look at this compound and give its reported TGI. CC1COCC(C)N1C1=C(Cl)C(=O)c2ccccc2C1=O (configuration not stated) 3.76

Can you look up the measured TGI of `O=C(/C=C/c1cccs1)c1ccccc1Cl` for me? 18.2

Dear colleague, I am looking for the recorded TGI of the following compound: NCCC1CN(C(=O)OCc2ccccc2)c2ccccc21 (configuration not stated) 22.9

Need TGI of CC(=O)/C(=C\c1ccc(Cl)c(Cl)c1)C(=O)C(C)CN(C)C (configuration not stated) , thanks. 22.4
